composite z-score reference
molecular target: Streptavidin (Streptomyces avidinii) (UniProt P22629); assay: compounds binding control protein streptavidin – biophysical, small-molecule microarray, 635/667 nm fluorescence, artefact control for SMM compound annotation, primary screen (AID 1147); settings: higher = more signal;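 also: signal reflects streptavidin binding to arrayed compounds as a control protein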
Sequence (P22629 whole entry, looked up): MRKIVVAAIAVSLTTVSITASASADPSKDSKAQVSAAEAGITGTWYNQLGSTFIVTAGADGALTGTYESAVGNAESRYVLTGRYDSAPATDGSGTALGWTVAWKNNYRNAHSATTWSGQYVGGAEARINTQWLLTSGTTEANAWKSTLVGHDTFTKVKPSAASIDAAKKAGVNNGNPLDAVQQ
Measured parameter: composite z-score

Compound	Measured parameter	Reported
COCCOC(=O)N1C(=O)[C@@]2(c3cc(C#CC4(O)CCCCCC4)ccc31)[C@H](C(=O)N1CCc3cc(OC)c(OC)cc3C1)[C@H]1C(=O)O[C@H](c3ccccc3)[C@H](c3ccccc3)N1[C@@H]2c1ccccc1OCCO	composite z-score	0.149
C[C@H]1NC(=O)C([C@@H](C)OCc2ccccc2)NC(=O)[C@@]23C(=O)N[C@@H](Cc4ccccc4)C2[C@H](C)[C@@]2(C)O[C@H]2C3/C=C/CC/C=C/CNC1=O (stereo partly drawn)	composite z-score	-0.0311
CC[C@@H]1[C@@H]2C3C(=O)N(CC)C(=O)C3CC(=O)[C@@H]2[C@H](c2ccc(C)cc2)N1S(=O)(=O)c1ccc(C)cc1 (stereo partly drawn)	composite z-score	0.492
C[N+](C)(C)CCCCCCNC(=O)[C@@H]1C[C@@H]2C(=O)NCC(=O)N2[C@@H]1c1ccc(O)cc1	composite z-score	1.44
COC(=O)[C@]1(Cc2ccccc2CN=[N+]=[N-])N=C(c2ccc(OCCCO)cc2)O[C@@H]1c1ccccc1CN=[N+]=[N-]	composite z-score	-0.908
O=C1O[C@H](c2ccccc2)[C@H](c2ccccc2)N2[C@H]1[C@@H](C(=O)N1CCN(c3ncccn3)CC1)[C@]1(C(=O)Nc3ccc(C#CCCO)cc31)[C@H]2c1ccccc1OCCO	composite z-score	0.376
Cc1cc(C)c(C(O)C2C=CC3C(=O)N(c4ccccc4)C(=O)C3N2Nc2ccc([N+](=O)[O-])cc2)c(C)c1 (stereo not drawn)	composite z-score	1.72
COCCCNC(=O)[C@@]1(Cc2ccccc2I)c2ccccc2C(=O)N(Cc2ccccc2Cl)[C@H]1c1ccc(CO)cc1	composite z-score	1.46
COc1cc(NN2C(C(O)c3ccc(I)cc3)C=CC3C(=O)N(C)C(=O)C32)cc(OC)c1OC (stereo not drawn)	composite z-score	-0.105
CCCC=C(CCC)[C@@H](NC(=O)Cc1ccccc1)c1ccc(C(=O)OC)cc1	composite z-score	1.68
NCCCCCCNC(=O)[C@H]1C[C@H]2C(=O)N3CCC[C@H]3C(=O)N2[C@H]1c1ccc(O)cc1	composite z-score	0.0381
CN(C)CCCN1C(=O)[C@@]2(Cc3ccccc31)c1ccccc1C(=O)N(Cc1ccccc1)[C@H]2c1ccc(CO)cc1	composite z-score	-0.394
COCCCNC(=O)[C@@]1(Cc2ccccc2N=[N+]=[N-])N=C(c2ccc(OCCCO)cc2)O[C@H]1c1ccccc1CN=[N+]=[N-]	composite z-score	1.08
O=C1C2C=CC(C(O)c3cccc4ccccc34)N(Nc3ccccc3)C2C(=O)N1c1ccccc1 (stereo not drawn)	composite z-score	0.595
C=C(COC)C(=O)CC[C@H](OC(=O)c1ccccc1-c1ccccc1C(=O)O)c1ccc(OCCO)cc1	composite z-score	-0.237
CN(C)C(=O)[C@@]1(Cc2ccccc2N=[N+]=[N-])N=C(c2ccc(OCCCO)cc2)O[C@H]1c1ccccc1N=[N+]=[N-]	composite z-score	0.54
COCC(=C=CC[C@@H](O)c1ccccc1OCCO)C[C@@H](O)c1ccccn1	composite z-score	-0.0795
CCCc1cc2c(n1Cc1ccc(OC)cc1)C(C)C1CN(C(=O)c3ccccc3)C(C)(C(=O)OC)C21 (stereo not drawn)	composite z-score	1.95
COc1ccc([Si](C)(C)[C@H]2[C@H](CCn3cc(CCO)nn3)O[C@@]3(C(=O)N(Cc4cccc(N5C(=O)c6cccc7cccc5c67)c4)c4ccccc43)[C@@H]2C)cc1	composite z-score	0.99
C=C(C)[C@@H]1CC=C(C(O)C2C=CC3C(=O)N(C4CCCCC4)C(=O)C3N2Nc2ccc(OC)cc2)CC1 (stereo partly drawn)	composite z-score	1.12
COc1cc2c(cc1OC)CN(C(=O)[C@@H]1[C@H]3C(=O)O[C@H](c4ccccc4)[C@H](c4ccccc4)N3[C@H](c3ccc(OCCO)cc3)[C@@]13C(=O)Nc1ccc(C#CCCO)cc13)CC2	composite z-score	1.64
OCCCC1=CC(c2cccs2)N(Cc2cccc(OC(F)(F)F)c2)CC1 (stereo not drawn)	composite z-score	-0.889
COCCOC(=O)N1C(=O)[C@@]2(c3cc(C#CCCO)ccc31)[C@H](c1ccc(OCCO)cc1)N1[C@H](c3ccccc3)[C@H](c3ccccc3)OC(=O)[C@H]1[C@@H]2C(=O)N1CCc2cc(OC)c(OC)cc2C1	composite z-score	0.402
COCCCNC(=O)[C@@H]1c2ccccc2C(=O)N(c2ccc(C)cn2)[C@H]1c1ccc(CO)cc1	composite z-score	-1.6
[N-]=[N+]=NCc1ccccc1[C@H]1OC(c2ccc(OCCCO)cc2)=N[C@@]1(Cc1ccccc1N=[N+]=[N-])C(=O)NCCN1CCOCC1	composite z-score	1.37
CN(C)CCCCCCNC(=O)[C@@H]1C[C@@H]2C(=O)NCC(=O)N2[C@@H]1c1ccc(O)cc1	composite z-score	0.28
COCCOC(=O)N1C(=O)[C@@]2(c3cc(C#CCC(C(=O)OC)C(=O)OC)ccc31)[C@H](C(=O)N1CCCCCCC1)[C@H]1C(=O)O[C@H](c3ccccc3)[C@H](c3ccccc3)N1[C@@H]2c1ccc(O)cc1	composite z-score	1.22
COc1ccc(C(=O)Nc2ccc(CN3C(=O)[C@]4(O[C@H](CCn5cc([C@H](O)c6ccccc6)nn5)[C@@H]([Si](C)(C)c5ccc(OC)cc5)[C@@H]4C)c4ccccc43)cc2)cc1	composite z-score	-0.19

====

Examples of compounds with documented z-score follow.
biological target: NADPH oxidase 4 (Homo sapiens) (UniProt Q9NPH5); test: compounds shifting NOX4 Amplex Red fluorescence – cell-based, HEK293-NOX4, tetracycline-induced, NOX inhibitor project, primary screen (AID 1160); settings: HEK293-NOX4, Amplex Red H2O2 fluorescence, 45 min; higher = more signal, called active from +8 up or from −8 down
Sequence (Q9NPH5 whole entry, looked up): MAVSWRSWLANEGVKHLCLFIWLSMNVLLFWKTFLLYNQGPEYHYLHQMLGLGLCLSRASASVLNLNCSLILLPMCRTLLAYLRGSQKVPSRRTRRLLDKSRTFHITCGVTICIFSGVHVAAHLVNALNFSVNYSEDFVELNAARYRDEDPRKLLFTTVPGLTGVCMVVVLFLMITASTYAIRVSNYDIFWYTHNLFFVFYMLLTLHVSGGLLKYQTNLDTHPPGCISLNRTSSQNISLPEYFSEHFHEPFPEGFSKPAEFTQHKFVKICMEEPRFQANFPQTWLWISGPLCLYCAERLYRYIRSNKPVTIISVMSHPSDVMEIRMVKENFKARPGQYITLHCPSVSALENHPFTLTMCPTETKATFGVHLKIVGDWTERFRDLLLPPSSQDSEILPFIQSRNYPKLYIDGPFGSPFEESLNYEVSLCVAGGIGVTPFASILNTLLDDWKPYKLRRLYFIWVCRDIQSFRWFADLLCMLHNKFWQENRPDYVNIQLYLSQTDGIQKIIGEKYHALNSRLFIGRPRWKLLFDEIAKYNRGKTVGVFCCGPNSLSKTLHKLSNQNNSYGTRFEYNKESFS

Compound	z-score
COCCOC(=O)N1C(=O)[C@@]2(c3cc(C#CC4(O)CCCCCC4)ccc31)[C@H](C(=O)N1CCN(c3ncccn3)CC1)[C@H]1C(=O)O[C@H](c3ccccc3)[C@H](c3ccccc3)N1[C@@H]2c1ccc(O)cc1	-1.31
COC(=O)C(CC#Cc1ccc2c(c1)[C@]1(C(=O)N2)[C@H](C(=O)N2CCc3cc(OC)c(OC)cc3C2)[C@H]2C(=O)O[C@H](c3ccccc3)[C@H](c3ccccc3)N2[C@@H]1c1ccc(O)cc1)C(=O)OC	-1.83
CO[C@H]1O[C@H](CO)[C@@H](OC(=O)Nc2ccc(C(F)(F)F)cc2)[C@H](OC(=O)Nc2ccccc2)[C@H]1OC(=O)Nc1ccccc1	-1.39
COc1ccc(CCNC(=O)[C@@H]2c3ccccc3C(=O)N(Cc3ccccc3C(F)(F)F)[C@H]2c2ccc(CO)cc2)cc1	-2.38
N#Cc1ccc(NN2C(C(O)c3ccccc3)C=CC3C(=O)N(c4ccccc4)C(=O)C32)cc1 (stereo unspecified)	-5.5
COC(=O)[C@@]1(Cc2ccccc2)[C@H]2c3cc(C(=O)N(C)C)n(Cc4ccccn4)c3C[C@H]2CN1C(=O)c1ccccc1	-1.87
COC(=O)[C@@]1(Cc2ccc(F)cc2)[C@@H]2[C@@H](CC(=O)[C@H]2CC(=O)C(=O)N2CCCC2)CN1C(=O)c1ccccc1	0.478
C=C(/C(=C/C[C@@H](OC(C)=O)c1ccccc1OCCO)c1cnc2ccccc2c1)C(C)C	-1.28
COCCCNC(=O)[C@@]1(Cc2ccccc2CN=[N+]=[N-])N=C(c2ccc(OCCCO)cc2)O[C@H]1c1ccccc1N=[N+]=[N-]	1.3
COCCOC(=O)N1C(=O)[C@@]2(c3cc(C#Cc4ccc(OC)cc4)ccc31)[C@H](c1ccc(OCCO)cc1)N1[C@H](c3ccccc3)[C@H](c3ccccc3)OC(=O)[C@H]1[C@@H]2C(N)=O	1.03
COCCOC(=O)N1C(=O)[C@@]2(c3cc(C#Cc4ccc(OC)cc4)ccc31)[C@H](C(=O)N1CCc3cc(OC)c(OC)cc3C1)[C@H]1C(=O)O[C@H](c3ccccc3)[C@H](c3ccccc3)N1[C@@H]2c1ccc(OCCO)cc1	-1.58
CC(C)CCC[C@@H](C)[C@H]1CC[C@@]2(C)C3=C(CC[C@]12C)[C@@]1(C)CC[C@H](OC(=O)C(C)(C)C)C(C)(C)C1CC3 (stereo partly specified)	0.4
CC(C)=CCCC(C)=CC(O)C1C=CC2C(=O)N(c3ccccc3)C(=O)C2N1Nc1ccc([N+](=O)[O-])cc1 (stereo unspecified)	-3.41
C[N+](C)(C)CCCCCCNC(=O)[C@H]1C[C@H]2C(=O)N3CCC[C@H]3C(=O)N2[C@H]1c1cccc(OCCO)c1	1.27
O=C(NCc1ccccc1)[C@]1(Cc2ccccc2)N=C(c2ccc(OCCCO)cc2)O[C@@H]1c1ccccc1	-0.503
CC(C)[Si](C#C[Si](C(C)C)(C(C)C)C(C)C)(O[C@H](C)c1cn(Cc2cccc(Cl)c2)nn1)C(C)C	0.312
O=C1c2ccccc2C(=O)C2CC([C@H]3Oc4ccccc4S(=O)(=O)N4CCC[C@@H]34)=CCC12 (stereo partly specified)	-3.1
CN(C)CCCN1C(=O)[C@@]2(Cc3ccccc31)c1ccccc1C(=O)N(Cc1ccccc1)[C@H]2c1ccc(CO)cc1	-2.82
COCCOC(=O)N1C(=O)[C@@]2(c3cc(C#Cc4ccc(OC)cc4)ccc31)[C@H](C(=O)N1CCc3cc(OC)c(OC)cc3C1)[C@H]1C(=O)O[C@H](c3ccccc3)[C@H](c3ccccc3)N1[C@@H]2c1ccc(O)cc1	-1.37
COC(=O)c1ccc(OC)c(/C=C\CC(CCc2ccccc2)OC(=O)c2ccncc2)c1 (stereo unspecified)	0.67
COC(=O)[C@@]1(Cc2ccc(OC)cc2)[C@H]2c3cc(C(=O)N4CCCC4)n(CCF)c3C[C@H]2CN1C(=O)c1ccccc1	-2.52
O=C1N(CCS(=O)(=O)c2ccccc2)c2ccccc2[C@H]2OC(c3ccc(OCCCO)cc3)=N[C@@]12CCS(=O)(=O)c1ccccc1	0.492
CC(C)NC(=O)[C@@H]1c2ccccc2C(=O)N(Cc2cc(C(F)(F)F)cc(C(F)(F)F)c2)[C@H]1c1ccc(CO)cc1	0.349
COCCOC(=O)N1C(=O)[C@@]2(c3cc(C#CCC(C(=O)OC)C(=O)OC)ccc31)[C@H](c1ccc(OCCO)cc1)N1[C@H](c3ccccc3)[C@H](c3ccccc3)OC(=O)[C@H]1[C@@H]2C(N)=O	0.988
[N-]=[N+]=Nc1ccccc1C[C@]1(C(=O)NCCN2CCOCC2)N=C(c2ccc(OCCCO)cc2)O[C@H]1c1ccccc1N=[N+]=[N-]	0.686
CCOC(=O)C1=CC[C@@H](c2ccccc2)N(S(=O)(=O)c2ccc(C)cc2)[C@H]1C=C(C)C	1.39
